Origin of the recorded values: the supplement of paper PMC6757056

B1: library; a variant is named by its letters at N, in order (parent)
chain: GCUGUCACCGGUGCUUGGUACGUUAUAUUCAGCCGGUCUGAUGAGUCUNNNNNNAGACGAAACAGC

Variants of: B1
Assay: normalized RNA/DNA level without ligand (relative to sTRSVctl = 100) (log10 (% of sTRSVctl)); HEK293T overexpressing SLC46A1; higher = less ribozyme self-cleavage, higher mRNA level
Conditions: without (6R,S)-folinic acid; ligand present: no
normalized RNA/DNA level without ligand (log10) listing for selected variants.
Endpoint: normalized RNA/DNA level without ligand (log10)

variant_identifier=GAUUGC assay_value=1.97
variant_identifier=CUGGCA assay_value=2
variant_identifier=GACUGA assay_value=2.03
variant_identifier=GGGAGG assay_value=2.01
variant_identifier=GGGUAA assay_value=2
variant_identifier=CUUUGU assay_value=1.99
variant_identifier=GAAGCU assay_value=2.02
variant_identifier=GUGACA assay_value=1.99
variant_identifier=GUCAUA assay_value=1.99
variant_identifier=AGACUA assay_value=1.98
variant_identifier=UAGAUA assay_value=1.96
variant_identifier=CGAUCG assay_value=2.04
variant_identifier=GGUUGU assay_value=2.02
variant_identifier=UGGCCU assay_value=2.04
variant_identifier=AUCCAC assay_value=2.04
variant_identifier=CAAACC assay_value=2.02
variant_identifier=CGUGUA assay_value=1.98
variant_identifier=GCUCAC assay_value=2.05
variant_identifier=AGCUCU assay_value=2.02
variant_identifier=GUUUCC assay_value=2.02
variant_identifier=UUGGAC assay_value=1.97
variant_identifier=ACUCUA assay_value=2
variant_identifier=CCUAAC assay_value=2.04
variant_identifier=GAAUAC assay_value=1.97
variant_identifier=CACGAC assay_value=2.02
variant_identifier=AGCCCG assay_value=2.02
variant_identifier=GGCAGC assay_value=2
variant_identifier=CUUAAU assay_value=1.99
variant_identifier=AGUAAC assay_value=2
